The following molecules are listed with their measured SW620 IC65 values.
# Tested on: SW620 cells
# protocol notes: MTS short-term cytotoxicity assay (72 h), SW620
# Type: cell-based
# measurement setup: 72 h, MTS; standard errors ≤ 0.1
Field: numeric (µM). Do not append units.

(Q) Give recorded SW620 IC65. CCN(CC)CCOC(=O)c1ccc2c(c1)c1c(c(=O)c3ccccc3n1CCN(CC)CC)n2CCN(CC)CC [2a]
(A) 1.44

(Q) Give recorded SW620 IC65. O=C(OCCCN1CCCCC1)c1ccc2c(c1)c1c(c(=O)c3ccccc3n1CCCN1CCCCC1)n2CCCN1CCCCC1 [2d]
(A) 0.45

(Q) Give recorded SW620 IC65. CCN(CC)CCOC(=O)c1ccc2c(c1)c1nc3ccccc3c(OCCN(CC)CC)c1n2CCN(CC)CC [1a]
(A) 4.12

(Q) Give recorded SW620 IC65. O=c1[nH]cc(F)c(=O)[nH]1 [5-FU, 5-fluorouracil, reference compound]
(A) 8.32

// data source = paper PMC4449006
